- System: MALME-3M melanoma
- measurement protocol: NCI tumour cell line growth inhibition, 48 h
Parameter threshold = 7 µM. Response is Condition met when TGI meets or exceeds it, else Condition not met.

Completed entries (count: 4):
>  <compound>
CCc1nc2ccccc2c(=O)n1/N=C(\N=Nc1ccc(Cl)cc1)c1ccccc1

>  <category>
Condition met

$$$$
>  <compound>
N#CCC1C2CC3C(C2=O)C13 (configuration not stated)

>  <category>
Condition met

$$$$
>  <compound>
NC(Cc1ccccc1)c1nn[nH]n1 (configuration not stated)

>  <category>
Condition met

$$$$
>  <compound>
O=C1CCN2C(=N1)Sc1ccccc12

>  <category>
Condition met

$$$$

Challenge: In plain terms: is recorded TGI at least 7 µM for `CN(CSc1ccc(Cl)cc1)c1ccc(CSc2ccc(Cl)cc2)cc1` ?
Response given: Condition met

----------
- Tested on: U251 CNS
- measurement protocol: NCI tumour cell line growth inhibition, 48 h
Listed compounds paired with reported TGI

Some compounds with known TGI results, for comparison:
>  <compound>
O=C(NS(=O)(=O)c1ccc(NC[C@H]2COCCO2)c([N+](=O)[O-])c1)c1ccc(N2CCN(CC3=C(c4ccc(Cl)cc4)CC4(CCC4)CC3)CC2)cc1Oc1cnc2[nH]ccc2c1

>  <measurement>
5.38 µM

$$$$
>  <compound>
C=C(COC(C)=O)CC(/C=C(\C)CC/C=C(\C)CO)OC(C)=O (centres undefined)

>  <measurement>
> 100 µM

$$$$

// returns TGI for `CCCOc1ccc(/C=N/Nc2cc(C)nc3ccc(Cl)cc23)cc1` with U251 CNS; value = 3.55 µM

// returns TGI for OCC1OC(n2cnc3c(SCc4ccccc4)ncnc32)C(O)C1O (centres undefined) with U251 CNS; value = > 100 µM

// returns TGI for `C/C(=N\O)c1cccc(Nc2cc(-c3ccccc3)nc3c(O)cccc23)c1` with U251 CNS; value = 15.8 µM

// returns TGI for `NC(=N\N=C/c1ccc(Cl)cc1Cl)/C(N)=N\N=C/c1ccc(Cl)cc1Cl` with U251 CNS; value = 19 µM

// returns TGI for CN1C(=O)CN2C(Cl)(Cl)C2(c2ccccc2)c2cc(Cl)ccc21 (centres undefined) with U251 CNS; value = > 100 µM

// returns TGI for `N#Cc1c(-c2ccccc2)cc(-c2cccs2)c(C#N)c1N` with U251 CNS; value = > 100 µM

// returns TGI for O=P(CCOc1ccccc1OCCP(=O)(c1ccccc1)c1ccc2c(c1)OCCOCCOCCOCCO2)(c1ccccc1)c1ccc2c(c1)OCCOCCOCCOCCO2 (centres undefined) with U251 CNS; value = > 100 µM

----------
- Tested on: BT-549 breast
- measurement protocol: NCI tumour cell line growth inhibition, 48 h
property name: GI50

Some compounds with known GI50 results, for comparison:
>  <compound>
CCOc1cc(/C=C/C(=O)C(C(=O)/C=C/c2ccc(OC(=O)CNc3nnc(C)s3)c(OCC)c2)C(=O)CNc2nnc(C)s2)ccc1OC(=O)CNc1nnc(C)s1

>  <measurement>
1980 nM

$$$$
>  <compound>
Cc1ccc(NC(=O)c2nc(S(C)(=O)=O)oc2-c2ccc(F)cc2)cc1Nc1ccc2ncn(C)c(=O)c2c1

>  <measurement>
1480 nM

$$$$
>  <compound>
COc1ccc(C2CC(c3ccc4ccccc4c3)=NN2c2nc(O)c(C3=c4cc(OC)ccc4=NC3=O)s2)cc1 (stereo not drawn)

>  <measurement>
978 nM

$$$$
>  <compound>
CCOC(=O)[C@@H](C)C[C@H](Cc1ccccc1)NC(=O)c1csc([C@@H](C[C@H](C(C)C)N(C)C(=O)[C@@H](NC(=O)[C@H]2C[C@H](O)CCN2C)C(C)C)OC(C)=O)n1

>  <measurement>
2.83 nM

$$$$
>  <compound>
O=C(c1cccs1)c1nc2cc(Cl)ccc2[n+]([O-])c1C(F)(F)F

>  <measurement>
> 100000 nM

$$$$

What the record says about COc1cc(/C=C/C(=O)c2ccc(F)cc2)ccc1OCCCCCOc1cc2c(cc1OC)C(=O)N1CCCC1C=N2 (stereo not drawn) : GI50 is 21.4 nM

What the record says about `CCCCN(CC)CCCCCCCCCCN1CCCc2cc(OC)ccc21` : GI50 is 3630 nM

What the record says about `O=c1[nH]c2ccccc2n2cc3ccccc3c12` : GI50 is 18900 nM
